# TARGET_SYSTEM: human PI3Kα protein (Homo sapiens, UniProt P42336)
# Construct: purchased Carna Biosciences, Inc; host or cells: baculovirus expression system
# Sequence (P42336 whole entry): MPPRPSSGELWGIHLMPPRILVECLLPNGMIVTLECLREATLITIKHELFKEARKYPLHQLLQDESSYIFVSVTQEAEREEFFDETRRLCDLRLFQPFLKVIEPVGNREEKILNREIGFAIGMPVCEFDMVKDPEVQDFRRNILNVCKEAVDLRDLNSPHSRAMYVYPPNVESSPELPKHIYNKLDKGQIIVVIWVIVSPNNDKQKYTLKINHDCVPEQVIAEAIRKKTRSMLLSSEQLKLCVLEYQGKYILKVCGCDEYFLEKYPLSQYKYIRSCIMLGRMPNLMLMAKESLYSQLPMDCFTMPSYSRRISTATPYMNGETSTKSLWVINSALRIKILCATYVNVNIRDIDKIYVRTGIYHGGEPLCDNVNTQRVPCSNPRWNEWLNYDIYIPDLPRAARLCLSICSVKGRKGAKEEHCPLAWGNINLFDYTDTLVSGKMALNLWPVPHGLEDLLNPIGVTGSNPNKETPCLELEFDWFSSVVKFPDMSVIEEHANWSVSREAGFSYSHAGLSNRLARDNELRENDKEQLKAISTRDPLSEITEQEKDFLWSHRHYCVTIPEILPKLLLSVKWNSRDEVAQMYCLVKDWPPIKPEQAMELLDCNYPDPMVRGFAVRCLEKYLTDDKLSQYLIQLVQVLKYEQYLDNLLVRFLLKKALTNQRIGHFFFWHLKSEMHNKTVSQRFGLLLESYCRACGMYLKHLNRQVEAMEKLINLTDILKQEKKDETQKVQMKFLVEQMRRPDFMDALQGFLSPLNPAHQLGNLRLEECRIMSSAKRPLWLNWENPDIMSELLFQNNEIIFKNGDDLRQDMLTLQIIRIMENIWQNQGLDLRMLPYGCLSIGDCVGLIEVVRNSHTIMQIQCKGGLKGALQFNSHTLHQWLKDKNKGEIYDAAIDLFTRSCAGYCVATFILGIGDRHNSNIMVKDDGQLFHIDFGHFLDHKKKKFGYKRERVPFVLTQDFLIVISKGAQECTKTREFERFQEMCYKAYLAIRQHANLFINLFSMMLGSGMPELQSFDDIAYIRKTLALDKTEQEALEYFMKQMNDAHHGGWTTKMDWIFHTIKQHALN
# Sequence (P27986 whole entry partner): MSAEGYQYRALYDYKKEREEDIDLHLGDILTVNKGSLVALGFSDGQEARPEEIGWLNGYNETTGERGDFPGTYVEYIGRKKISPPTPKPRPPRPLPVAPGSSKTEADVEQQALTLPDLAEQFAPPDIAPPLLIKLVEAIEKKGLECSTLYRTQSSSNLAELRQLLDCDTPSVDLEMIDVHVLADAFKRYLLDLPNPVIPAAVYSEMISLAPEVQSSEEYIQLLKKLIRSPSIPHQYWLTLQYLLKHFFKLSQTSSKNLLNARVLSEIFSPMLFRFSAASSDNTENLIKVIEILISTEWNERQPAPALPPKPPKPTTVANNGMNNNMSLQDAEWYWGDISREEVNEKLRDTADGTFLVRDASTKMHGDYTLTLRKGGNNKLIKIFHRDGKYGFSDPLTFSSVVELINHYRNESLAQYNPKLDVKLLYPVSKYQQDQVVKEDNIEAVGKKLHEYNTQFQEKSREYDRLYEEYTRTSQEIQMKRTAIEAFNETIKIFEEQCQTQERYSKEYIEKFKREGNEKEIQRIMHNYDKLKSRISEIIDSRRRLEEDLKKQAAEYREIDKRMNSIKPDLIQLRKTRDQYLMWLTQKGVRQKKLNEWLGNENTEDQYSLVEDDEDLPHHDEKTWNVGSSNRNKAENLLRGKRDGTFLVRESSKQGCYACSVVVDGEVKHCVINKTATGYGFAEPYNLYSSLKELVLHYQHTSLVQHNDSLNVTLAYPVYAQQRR
# ASSAY_SUMMARY: PI3Kα enzyme assay (ADP-Glo)
# Format: biochemical
# RECORDED_CONDITIONS: read-out: PI3Kα enzyme inhibitory activity
pIC50: −log10 of the molar value.
// pIC50 lookup, one value per entry

Field: example entries. Status: answers known.
CC(=O)N1[C@H](C)CN(CCCn2cc(-c3cnc4ccc(Nc5cc(C(C)C)cnn5)nc4c3)cn2)C[C@@H]1C [Example 0435] ... > 6.00
Cn1cc(-c2cnc3ccc(Nc4nnc(C5CCCO5)s4)nc3c2)cn1 (stereo not shown) [Example 0227] ... > 6.00
CC(C)c1cnnc(Nc2ccc3ncc(-c4cccn(C)c4=O)cc3n2)c1 [Example 0595] ... 5.00 to 6.00
FC1(F)CCN(CCCn2cc(-c3cnc4ccc(Nc5nnc(C6CCCC6)s5)nc4c3)cn2)C1 [Example 0352] ... > 6.00
CCCCOC1CN(c2cnc3ccc(Nc4cc(C(C)C)cnn4)nc3c2)C1 [Example 0870] ... 5.00 to 6.00
CC(C)c1cnnc(Nc2ccc3ncc(C4=CCN(C(=O)OC(C)(C)C)CC4)cc3n2)c1 [Example 0880] ... > 6.00
CC(C)c1cnnc(Nc2ccc3ncc(NC4CCCCC4)cc3n2)c1 [Example 0877] ... > 6.00
CC(C)c1cnnc(Nc2ccc3ncc(-c4cnn(CCC(C)N5CCOCC5)c4)cc3n2)c1 (stereo not shown) [Example 0418] ... > 6.00

Per the record, CC(C)c1cnnc(Nc2ccc3ncc(-c4cnn(CCC(=O)N5CCCCC5)c4)cc3n2)c1 [Example 0416] has pIC50 of > 6.00

Per the record, CCC(C)c1cnnc(Nc2ccc3ncc(-c4cnn(C)c4)cc3n2)c1 (stereo not shown) [Example 0569] has pIC50 of > 6.00

Per the record, CC(C)c1cnnc(Nc2ccc3ncc(-c4cn(C)nc4CF)cc3n2)c1 [Example 0626] has pIC50 of > 6.00

Per the record, CCN(CC)c1cnnc(Nc2ccc3ncc(-c4cnn(C)c4)cc3n2)c1 [Example 0517] has pIC50 of > 6.00

Per the record, CC(C)c1cnnc(Nc2ccc3ncc(-c4cn(C)nc4CN4CCOCC4)cc3n2)c1 [Example 0942] has pIC50 of > 6.00

Per the record, CCc1nn(C)cc1-c1cnc2ccc(Nc3cc(C(C)C)cnn3)nc2c1 [Example 0761] has pIC50 of > 6.00

Per the record, CC(C)c1cnnc(Nc2ccc3ncc(-c4cn(C)nc4Nc4ccncc4)cc3n2)c1 [Example 0798] has pIC50 of > 6.00

Per the record, CN(C)c1cnnc(Nc2ccc3ncc(-c4cnn(CCCN5CCCC5)c4)cc3n2)c1 [Example 0403] has pIC50 of > 6.00

Per the record, Cc1cnnc(Nc2ccc3ncc(-c4cn(C)nc4CO)cc3n2)c1 [Example 0397] has pIC50 of > 6.00

Per the record, Cn1cc(-c2cnc3ccc(Nc4cc(C5CC5)cnn4)nc3c2)cn1 [Example 0564] has pIC50 of > 6.00

Per the record, CC(=O)Nc1ccc(-c2nn(C)cc2-c2cnc3ccc(Nc4cc(C(C)C)cnn4)nc3c2)cn1 [Example 0459] has pIC50 of > 6.00

Per the record, CC(C)c1cnnc(Nc2ccc3ncc(-c4cn(C)nc4-c4ccnc(N(C)C)c4)cc3n2)c1 [Example 0753] has pIC50 of > 6.00

Per the record, CC(=O)N1CC=C(c2cnc3ccc(Nc4nnc(C5CCCC5)s4)nc3c2)CC1 [Example 0334] has pIC50 of > 6.00

Per the record, CC(C)c1cnnc(Nc2ccc3ncc(-c4cnn(CCCN5C[C@@H](C)O[C@H](C)C5)c4)cc3n2)c1 [Example 0614] has pIC50 of > 6.00

Per the record, CC(C)c1cnnc(Nc2ccc3ncc(-c4ccc(=O)n(C)c4)cc3n2)c1 [Example 0594] has pIC50 of > 6.00

Per the record, Cc1nn(C)cc1-c1cnc2ccc(Nc3cc(C(C)C)cnn3)nc2c1C [Example 0852] has pIC50 of > 6.00
